Test system: SK-MEL-5
test.summary: NCI tumour cell line growth inhibition, 48 h
Structures can show the parent of a compound that is named as a salt. The source made the active and inactive calls. Rule as the data show it: active = GI50 up to about 1.1 µM and inactive = higher.
property.label: GI50

Use these answered entries as a reference point.
Cc1cn([C@H]2C=C[C@@H](CO)O2)c(=O)[nH]c1=O : > 1000 µM (inactive)
O=C1CCCC(=O)N1n1c(Cc2ccccc2)n[nH]c1=O : > 100 µM (inactive)
Oc1ccc(C(O)C2CCCCN2)cc1O (stereo unspecified) [RIMITEROL HYDROBROMIDE] : > 100 µM (inactive)
Cc1c(C(=O)CC(=O)C(=O)Nc2cccc(C(F)(F)F)c2)[n+]([O-])c2ccccc2[n+]1[O-] : 3.57 µM (inactive)

Field request: GI50 | item: "Cc1cccc(C(C)C)c1NC(=O)C(=O)CC(=O)c1sc(Nc2ccccc2Cl)nc1C"
13.5 µM (inactive)

Given the molecule "Cn1c2ccccc2n2c3ccccc3c(=S)c(C#N)c12" , what is its reported GI50?
> 100 µM (inactive)

Could you share which GI50 value was measured for "O=C1C/C(=C\O)C(=O)c2ccccc2N1" ?
> 100 µM (inactive)

Sample "N=C(CC(=O)Nc1ccc(Cl)cc1)Nc1ccccc1" — what was its GI50?
> 100 µM (inactive)

Look up GI50 for this molecule: OC1(C(F)(F)F)OCCN=C1C(F)(F)F (stereo unspecified)
56.2 µM (inactive)

Quick check: GI50 of CC(=O)OCC1OC(n2cnc3nc(Br)[nH]c(=O)c32)C(OC(C)=O)C1OC(C)=O (stereo unspecified) ?
> 100 µM (inactive)

What does the data say about its GI50? Entry: "O=C(O)c1nnsc1COCc1ccccc1"
> 100 µM (inactive)

###

Test system: LOX IMVI
test.summary: NCI tumour cell line growth inhibition, 48 h
Activity calls are given as the source filed them. No stated cut-off is given here; in the data, active = GI50 up to about 1.1 µM and inactive = higher.
Each entry below carries its reported GI50.

Recorded GI50, per entry:
COc1cc2ccnc(-c3c4ccccc4c(N)c4c(OC)c(OC)ccc34)c2cc1OC : 1.52 µM (inactive)
CCC(C#N)(c1ccccc1)N(CCc1ccccc1)C(=O)c1ccccc1 (stereo not drawn) : > 100 µM (inactive)

# evaluate next
# lookup: GI50 of "OCCN(CCO)c1ccc2c(c1)Cc1ccccc1-2"
29.9 µM (inactive)

###

Let's look at some molecules and their measured GI50.
System: HOP-62
test.summary: NCI tumour cell line growth inhibition, 48 h
Activity calls are given as the source filed them. No stated cut-off is given here; in the data, active = GI50 up to about 1.1 µM and inactive = higher.

The cases that follow already have their GI50 on record.
c1ccc2c3nnc(c2c1)SCCSCCSc1nnc(c2ccccc12)SCCSCCS3 : > 100 µM (inactive)
CCOC(=O)Cn1c(=O)c2cc(-c3ccccc3)cc3c(Cl)nc4c(OC)c(OC)cc1c4c32 : 28.8 µM (inactive)
C[N+](C)=c1[nH]c2ccccc2[nH]1 : > 100 µM (inactive)
Nc1c(F)c(F)c2c(c1F)N(CCCCCl)c1ccccc1S2 : > 100 µM (inactive)
N#Cc1c(=O)c2ccccc2n2c1[nH]c1ccccc12 : > 100 µM (inactive)

# input for lookup
Please report the recorded GI50 for "CC(C)n1c(=O)[nH]n(-c2ccccc2)c1=O" .
> 100 µM (inactive)

###

Test system: SN12C
test.summary: NCI tumour cell line growth inhibition, 48 h
Calls of active or inactive are those of the source. No stated cut-off is given here; in the data, active = GI50 up to about 1.1 µM and inactive = higher.
Listing: GI50 of selected molecules

NC(=O)Nc1n[nH]c(-c2ccccc2)n1 : > 100 µM (inactive)

Which GI50 value belongs to "O=c1sc(-c2nc3ccccc3[nH]2)c(/N=C/c2ccccc2)n1-c1ccccc1" ?
73.3 µM (inactive)

Please give the measured GI50 for this molecule: CC(=O)OCC1OC(n2c(-c3ccc(C)cc3)cc(-c3ccccc3)c(C#N)c2=O)C(OC(C)=O)C(OC(C)=O)C1OC(C)=O (stereo not given)
> 100 µM (inactive)

Bench note: what GI50 did CCCC(=O)OCC1OC(n2cc(F)c(=O)[nH]c2=O)C(F)C1O (stereo not given) show?
> 82.8 µM (inactive)

###

System: TK-10
test.summary: NCI tumour cell line growth inhibition, 48 h
Activity calls are given as the source filed them. Rule as the data show it: active = GI50 up to about 1.1 µM and inactive = higher.
property.label: GI50

# count of solved cases: 5
COC1=C(N2CC2)C(=O)c2nc3n(c2C1=O)CCC3 : 3.23 µM (inactive)
O=C(O)CCCSc1ccccc1 : > 100 µM (inactive)
Cc1cc2c(c(C(N)=O)c1C)-c1cccc(F)c1C2=O : > 100 µM (inactive)
COc1cc(/C=C/C(=O)OCCc2ccccc2)ccc1O : 15.1 µM (inactive)
COc1cc(C2SCC(=O)N2c2ccc(Cl)cc2)cc(I)c1O (stereo unspecified) : > 94.6 µM (inactive)

Switching to the query record.
// query GI50 value for entry "O=c1oc(C(C(F)(F)F)C(F)(F)F)nc2ccccc12"
> 100 µM (inactive)

###

Test system: KM12
test.summary: NCI tumour cell line growth inhibition, 48 h
The source made the active and inactive calls. Rule as the data show it: active = GI50 up to about 1.1 µM and inactive = higher.
Field 'call' accepts 1 for active, 0 for inactive

CC(OC(=O)NCn1cc(-c2ccccc2)nn1)c1ccccc1 (stereo not given) : 0
CC(=O)Nc1ccccc1NC1CC(C)N(c2ccccc2)N1C(C)=O (stereo not given) : 0
O=c1[nH]c2c(O)cccc2c2cc3c(c(O)c12)OCO3 : 0
COC(=O)C(=O)C(C(=O)C(=O)Nc1ccccc1OC)c1nc2ccc([N+](=O)[O-])cc2nc1O (stereo not given) : 0
O=S(=O)(O)c1c(Cl)cc(O)c2ncccc12 : 0

Please let me know the test result on file for "COc1cc2c(cc1-c1coc3cc(O)ccc3c1=O)OCO2" .
0

Entry "CC(C)c1ccc2nc3ccc(C(=O)NCCN(C)C)cn3c(=O)c2c1" : call = ?
0

In this assay, the call recorded for "Oc1cccc(-c2cc(=S)ss2)c1" was what?
0

Hey, what did the test say about "COc1ccc(OC)c2c(C)ccnc12" ?
0

Identify the outcome logged in this assay for the compound shown: "Cc1cccc(C(C)C)c1NC(=O)C(=O)CC(=O)c1sc(Nc2ccccc2Cl)nc1C"
0

Please indicate how the test categorized NCCN1C(=O)c2ccccc2C1(O)c1ccc(Cl)cc1 (stereo not given) .
0

###

Tested on: HT-29
test.summary: NCI tumour cell line growth inhibition, 48 h
Activity calls are given as the source filed them. No stated cut-off is given here; in the data, active = GI50 up to about 1.1 µM and inactive = higher.
property.label: GI50

O=C1c2cccc3cc([N+](=O)[O-])cc(c23)C(=O)N1CCCN1CCN(CCCNc2ccc3ncn4c5ccccc5c(=O)c2c34)CC1 : < 0.005 µM (active)
CN(C)c1ccc(/C=C2\CCCCCC2=O)cc1 : > 100 µM (inactive)
O=C1NC(=S)N/C1=C\c1cc2c(=O)c3ccccc3sc2s1 : 55.1 µM (inactive)
COC(=O)C(=O)C(C(=O)C(=O)Nc1ccccc1OC)c1nc2ccc([N+](=O)[O-])cc2nc1O (stereo not given) : > 100 µM (inactive)

Okay, next one:
So what does the record say about GI50 for C#CC(O)/C=C/CCCCCCC#CC/C=C\CC#CCCCCCCCCC(O)C#C (stereo not given) ?
2.74 µM (inactive)

###

System: SNB-78
test.summary: NCI tumour cell line growth inhibition, 48 h
Calls of active or inactive are those of the source. Cut-off read from the data, not from the text of the source: active = GI50 up to about 1.1 µM and inactive = higher.
Answer with one of the outcomes given here: active, inactive

Solved cases (6 shown):
CN(C(=O)c1cccs1)C(=S)N1CCN(c2ccccn2)CC1 : inactive
CN(C)c1ccc(/C=C/c2ccc(/C=C/c3ccc(N(C)C)cc3)cc2)cc1 : inactive
CCCCc1c2c(nc3c1CCCC3O)/C(=C/c1ccccc1)CCC2 (stereo not given) : inactive
N=C(CC(=O)Nc1ccc(Cl)cc1)Nc1ccccc1 : inactive
Cc1nc2nn(Cc3ccccc3)cc2c(=O)o1 : inactive
COc1cc(C2c3cc4c(cc3[C@@H](Nc3ccc(N(C)C)cc3)[C@H]3COC(=O)C23)OCO4)cc(OC)c1O (stereo not given in full) : inactive

Each molecule tested received a call. Report the one for "CCCCCC(=O)OC[n+]1ccc2c(C)c3[nH]c4ccccc4c3c(C)c2c1" .
active

For O=C(COc1ccc(Br)cc1Br)N1N=C(c2ccc([N+](=O)[O-])o2)CC1(O)c1ccccc1 (stereo not given) , what call appears in the results of this test?
inactive

Kindly provide the recorded test outcome for the following molecule: "CCOC(=O)NC(=O)c1cn(CCCCCOC(=O)NCCCCCCNC(=O)OCCCCCn2cc(C(=O)NC(=O)OCC)c(=O)[nH]c2=O)c(=O)[nH]c1=O"
inactive

Which outcome was assigned to "O=C(/C=C/c1ccco1)N1CCN(Cc2ccccc2)CC1" in this test?
inactive

###

Tested on: Hs-578T
test.summary: NCI tumour cell line growth inhibition, 48 h
The source made the active and inactive calls. No stated cut-off is given here; in the data, active = GI50 up to about 1.1 µM and inactive = higher.
property.label: GI50

O=C1C=C(c2ccccc2)OC1C1Sc2ccccc2NC1=O (stereo unspecified) : 6.11 µM (inactive)

What does the record list as GI50 for "NN(CC(=O)O)CC(=O)O" ?
> 100 µM (inactive)

Tell me the measured GI50 of "N#Cc1c(=O)c2ccccc2n2c1[nH]c1ccccc12" , please.
20.9 µM (inactive)

So what does the record say about GI50 for "Cc1cccc(C(C)C)c1NC(=O)C(=O)CC(=O)c1sc(Nc2ccccc2Cl)nc1C" ?
21.9 µM (inactive)

Bench note: what GI50 did "CC(C)n1c(=O)[nH]n(-c2ccccc2)c1=O" show?
> 100 µM (inactive)

Give its GI50 value. Item: "O=C(O)/C=C(/CC(=O)O)C(=O)O"
19.9 µM (inactive)

May I ask what GI50 has been recorded for "COc1cccc(N(CN2CC=CC2=O)C(C)=O)c1" ?
> 100 µM (inactive)

Record request: GI50 value, item "Cc1cc(-c2nc3cc(F)ccc3s2)ccc1NC(=O)[C@@H](N)CCCCN"
3.08 µM (inactive)

Query (molecule): CCOC(=O)N1CCC2(CC1)C[C@@](C(C)=O)(c1ccccc1)C(C)O2 (stereo partly specified) ; field requested: GI50
> 100 µM (inactive)

Given "COc1cc2nc(-c3cccs3)nc(N3CCN(c4ccccc4C(F)(F)F)CC3)c2cc1OC" , state its recorded GI50.
89.9 µM (inactive)

Fill in the blank: the reported GI50 of "Cc1nc(C(N)=S)sc1C(=O)C/C(=N/N)C(=O)Nc1ccc(Cl)cc1" is ____.
39.1 µM (inactive)

The measurements presented in this section are drawn from ChEMBL document CHEMBL1201862.
